# maps each entry to its IC50
- Tested on: Leishmania donovani
- assay overview: Antileishmanial activity against amastigotes of Leishmania donovani MHOM/SD/62/IS-CL2D
- Assay type: functional, organism-based

1. COc1cc(/C(N)=N/O)cc(Br)c1OCc1cccc(/C(N)=N/O)c1.Cl.Cl :: > 100 µM
2. COc1cc(/C(N)=N/O)cc(OC)c1OCc1cccc(/C(N)=N/O)c1.Cl.Cl :: > 100 µM

Now consider a different compound.
Let me check: Cl.Cl.N/C(=N\O)c1cccc(COc2ccc(/C(N)=N/O)cc2I)c1 , system Leishmania donovani, measured IC50 is > 50 µM

* * *

- System: Leishmania donovani
- assay overview: Antileishmanial activity against amastigotes of Leishmania donovani MHOM/SD/62/IS-CL2D
- Assay type: functional, organism-based
property name: IC50

Please review the entries below; each comes with its answer.
1) CO/N=C(\N)c1cccc(COc2c(I)cc(/C(N)=N/OC)cc2I)c1.Cl.Cl :: 44.2 µM
2) CC(C)NC(=N)c1ccc(COc2ccc(C(=N)NC(C)C)cc2)cc1 :: 26.6 µM
3) CO/N=C(\N)c1cccc(COc2c(OC)cc(/C(N)=N/OC)cc2OC)c1.Cl.Cl :: > 100 µM

Value of measured IC50 for the entry N=C(N)c1ccc(COc2c(Br)cc(C(=N)N)cc2Br)cc1 : 4.09 µM

In plain terms, CC(C)c1ccc(OCc2ccc(C(=N)N)cc2)cc1 has a documented IC50 of 49.5 µM

Reported IC50 for CO/N=C(\N)c1cccc(COc2c(Br)cc(/C(N)=N/OC)cc2Br)c1.Cl.Cl was > 50 µM

Input N=C(N)c1ccc(COc2ccc(C(=N)N)cc2Br)cc1 . Output IC50: 2.02 µM

Input CO/N=C(\N)c1ccc(COc2ccc(/C(N)=N/OC)cc2Br)cc1.Cl.Cl . Output IC50: > 100 µM

* * *

Measured pIC50 by item
- Test system: Leishmania donovani
- assay overview: Antileishmanial activity against amastigotes of Leishmania donovani MHOM/SD/62/IS-CL2D
- Format: functional, organism-based
pIC50: −log10 of the molar value.

Observe how each entry below is paired with its result.
1) N=C(N)c1cc(I)c(OCc2cccc([N+](=O)[O-])c2)c(I)c1 :: 4.46
2) CO/N=C(\N)c1cccc(COc2c(Br)cc(/C(N)=N/OC)cc2OC)c1.Cl.Cl :: < 4.00
3) CO/N=C(\N)c1cccc(COc2c(I)cc(/C(N)=N/OC)cc2OC)c1.Cl.Cl :: < 4.00
4) COc1cc(C(=N)N)cc(OC)c1OCc1cccc(C(=N)N)c1.Cl.Cl :: < 4.00
5) Cl.Cl.Cl.Cl.N/C(=N\O)c1cccc(COc2c(Cl)cc(/C(N)=N/O)cc2Cl)c1 :: < 4.00
6) COc1cc(C(=N)N)cc(Br)c1OCc1cccc(C(=N)N)c1.Cl.Cl :: 4.94
7) COc1cc(C(=N)N)cc(I)c1OCc1cccc(C(=N)N)c1.Cl :: 5.22
8) N=C(N)c1ccc(OCc2ccc([N+](=O)[O-])cc2)c(I)c1 :: < 4.30

Now, please, on to the next molecule.
Value of measured pIC50 for the entry COc1cc(C(=N)N)cc(OC)c1OCc1ccc(C(=N)N)cc1.Cl.Cl : < 4.00
